TEST TARGET: T1, Dimeric monkey CD48-mFc (monkey)
T1 construct: Soluble monkey CD48 with a C-terminal Fc fusion [mFc]; the whole entry is the construct
T1 chain: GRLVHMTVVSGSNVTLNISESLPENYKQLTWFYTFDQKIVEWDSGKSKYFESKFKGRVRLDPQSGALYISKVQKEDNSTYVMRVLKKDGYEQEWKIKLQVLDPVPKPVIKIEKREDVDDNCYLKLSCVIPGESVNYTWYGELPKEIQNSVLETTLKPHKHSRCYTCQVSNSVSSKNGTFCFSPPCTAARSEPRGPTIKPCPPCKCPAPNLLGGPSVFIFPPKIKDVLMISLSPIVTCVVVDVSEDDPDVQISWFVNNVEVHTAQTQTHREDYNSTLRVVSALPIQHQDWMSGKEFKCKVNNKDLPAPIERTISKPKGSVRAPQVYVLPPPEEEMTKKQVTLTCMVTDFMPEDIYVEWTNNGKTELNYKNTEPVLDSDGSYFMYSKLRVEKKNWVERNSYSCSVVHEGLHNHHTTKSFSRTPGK
PROTOCOL DETAILS: SPR (Biacore), antibody captured by anti-Fc, CD48 in solution, 37 C
Protocol: Measurements were conducted on a T100-2 BIACORE™ instrument (Biacore Life Sciences division of GE Healthcare, Piscataway, N.J.). […] The soluble CD48 was applied to the flow cell in separate injections at different concentrations, and kinetic association (kₐ) and dissociation (kd) rate constants were determined by fits to the kinetic binding data using Biacore software. […]
Listing of recorded Kd by entry.
Respond with the bare value in nM.

H4H1779P (antibody, human IgG4, V domains shown, Human IgG4 Fc (H4H)) VH: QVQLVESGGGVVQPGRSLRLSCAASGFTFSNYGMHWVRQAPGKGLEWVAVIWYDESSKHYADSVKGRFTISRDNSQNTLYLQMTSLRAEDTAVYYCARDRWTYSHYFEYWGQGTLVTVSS VL: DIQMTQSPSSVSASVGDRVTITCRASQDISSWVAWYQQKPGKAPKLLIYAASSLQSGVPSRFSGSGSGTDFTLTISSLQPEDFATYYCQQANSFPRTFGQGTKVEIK: 0.0829
H4H1778P (antibody, human IgG4, V domains shown, Human IgG4 Fc (H4H)) VH: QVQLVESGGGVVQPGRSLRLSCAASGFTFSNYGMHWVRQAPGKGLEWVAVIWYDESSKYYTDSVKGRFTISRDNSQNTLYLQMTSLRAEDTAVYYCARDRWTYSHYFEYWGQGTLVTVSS VL: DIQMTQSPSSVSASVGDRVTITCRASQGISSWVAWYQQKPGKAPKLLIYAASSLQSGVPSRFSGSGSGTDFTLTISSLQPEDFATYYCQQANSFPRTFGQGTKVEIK: 0.0686

Could you now look at the following binder, please?
Field Kd (entry H4H1707N (antibody, V domains shown, Human IgG4 Fc (H4H)) VH: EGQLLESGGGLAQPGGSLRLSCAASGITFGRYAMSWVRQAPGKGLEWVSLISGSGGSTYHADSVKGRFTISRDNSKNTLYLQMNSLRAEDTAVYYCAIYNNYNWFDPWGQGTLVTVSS VL: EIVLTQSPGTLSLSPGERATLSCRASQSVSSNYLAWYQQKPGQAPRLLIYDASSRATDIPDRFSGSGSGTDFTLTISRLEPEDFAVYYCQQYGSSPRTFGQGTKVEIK ) reads 3.2
